Data origin, for the record: patent US20220010021A1

target: human FGFR1c + KLB receptor complex on HEK293 iLite FGF21 reporter cells (human, UniProt P11362 22-822; Q86Z14 1-1044); test: cell-based or functional assay
Sequence (P11362 22-822, chain 1 of 2): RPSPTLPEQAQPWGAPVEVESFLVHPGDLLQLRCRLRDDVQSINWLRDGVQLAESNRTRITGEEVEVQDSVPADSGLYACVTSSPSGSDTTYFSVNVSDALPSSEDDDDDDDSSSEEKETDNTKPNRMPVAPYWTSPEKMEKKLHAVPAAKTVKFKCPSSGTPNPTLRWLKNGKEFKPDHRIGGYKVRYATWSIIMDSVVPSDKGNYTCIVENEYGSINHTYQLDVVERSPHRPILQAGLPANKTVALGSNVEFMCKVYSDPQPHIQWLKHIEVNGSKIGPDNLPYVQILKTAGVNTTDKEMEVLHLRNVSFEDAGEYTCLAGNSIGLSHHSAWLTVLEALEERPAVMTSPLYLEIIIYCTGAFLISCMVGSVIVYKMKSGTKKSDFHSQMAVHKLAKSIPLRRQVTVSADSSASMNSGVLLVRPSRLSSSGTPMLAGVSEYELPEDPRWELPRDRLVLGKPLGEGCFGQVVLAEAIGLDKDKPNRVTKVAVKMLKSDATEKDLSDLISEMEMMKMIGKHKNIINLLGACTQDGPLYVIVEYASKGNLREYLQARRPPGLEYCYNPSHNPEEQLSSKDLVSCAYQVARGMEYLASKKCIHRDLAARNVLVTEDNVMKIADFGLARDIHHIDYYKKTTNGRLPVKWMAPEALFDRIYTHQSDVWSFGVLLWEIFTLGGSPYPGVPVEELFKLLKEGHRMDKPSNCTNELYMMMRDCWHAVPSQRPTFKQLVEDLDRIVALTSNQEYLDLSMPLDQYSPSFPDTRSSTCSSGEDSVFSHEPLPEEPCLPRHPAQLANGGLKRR
Sequence (Q86Z14 whole entry, chain 2 of 2): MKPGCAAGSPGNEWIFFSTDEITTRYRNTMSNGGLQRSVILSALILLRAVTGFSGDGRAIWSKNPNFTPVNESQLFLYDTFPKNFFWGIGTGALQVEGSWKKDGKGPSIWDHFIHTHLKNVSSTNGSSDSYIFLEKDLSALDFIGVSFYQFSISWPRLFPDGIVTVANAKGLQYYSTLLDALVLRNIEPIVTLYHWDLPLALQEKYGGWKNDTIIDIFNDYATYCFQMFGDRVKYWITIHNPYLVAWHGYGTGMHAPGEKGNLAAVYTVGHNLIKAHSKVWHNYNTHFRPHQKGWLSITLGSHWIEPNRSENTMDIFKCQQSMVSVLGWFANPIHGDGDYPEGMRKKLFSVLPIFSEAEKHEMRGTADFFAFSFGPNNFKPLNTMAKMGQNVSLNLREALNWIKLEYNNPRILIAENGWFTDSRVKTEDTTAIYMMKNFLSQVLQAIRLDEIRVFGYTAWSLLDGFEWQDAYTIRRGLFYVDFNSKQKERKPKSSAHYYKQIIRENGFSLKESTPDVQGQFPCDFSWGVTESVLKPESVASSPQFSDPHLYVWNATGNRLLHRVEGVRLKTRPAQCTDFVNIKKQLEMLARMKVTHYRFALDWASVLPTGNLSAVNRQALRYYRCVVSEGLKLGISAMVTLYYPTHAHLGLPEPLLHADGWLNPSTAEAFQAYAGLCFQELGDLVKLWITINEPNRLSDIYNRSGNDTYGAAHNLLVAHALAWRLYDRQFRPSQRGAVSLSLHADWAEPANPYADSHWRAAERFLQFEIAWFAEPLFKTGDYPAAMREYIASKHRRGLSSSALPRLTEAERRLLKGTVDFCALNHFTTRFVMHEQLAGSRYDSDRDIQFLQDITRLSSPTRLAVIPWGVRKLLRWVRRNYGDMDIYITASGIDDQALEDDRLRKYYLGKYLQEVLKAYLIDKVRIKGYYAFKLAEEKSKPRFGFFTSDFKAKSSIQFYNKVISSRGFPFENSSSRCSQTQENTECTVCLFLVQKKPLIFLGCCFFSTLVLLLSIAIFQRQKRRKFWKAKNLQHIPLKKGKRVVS
Parameter EC50: see the listing below.
API: value field is a number in pM; no unit string.

Example cases with answers are listed next.
# binder, EC50 [pM]
data = [
    ("Ab0353 (antibody, IgG4, V domains shown, IgG4 PE) VH: QVTLKESGPVLVKPTETLTLTCTVSGFSLNNARVGVSWIRQPPGKALEWLAHIFSNDEKSYSTSLKSRLTISKDTSKSQVVLTMTNMDPVDTATYYCARSVVTGGYYYEGMDVWGQGTTVTVSS VL: SYVLTQPPSVSVAPGQTARITCGGSNIGSESVHWYQQKPGQAPVLVVYEESDRPSGIPERFSGSNSGNTATLTISRVEAGDEADYYCQVWEGASDHVVFGGGTKLTVLG", 80),
    ("Ab0344 (antibody, IgG4, V domains shown, IgG4 PE) VH: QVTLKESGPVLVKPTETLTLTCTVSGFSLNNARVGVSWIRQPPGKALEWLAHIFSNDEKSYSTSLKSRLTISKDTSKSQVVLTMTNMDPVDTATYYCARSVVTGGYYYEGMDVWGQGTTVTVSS VL: SYVLTQPPSVSVAPGQTARITCGGSNIGSESVHWYQQKPGQAPVLVVYAASDRPSGIPERFSGSNSGNTATLTISRVEAGDEADYYCQVWEGSSDHVVFGGGTKLTVLG", 70),
]

EC50 for Ab0338 (antibody, IgG4, V domains shown, IgG4 PE) VH: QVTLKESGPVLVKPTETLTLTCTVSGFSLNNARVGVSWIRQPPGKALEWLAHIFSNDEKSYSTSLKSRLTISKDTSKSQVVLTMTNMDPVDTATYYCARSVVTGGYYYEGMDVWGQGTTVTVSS VL: SYVLTQPPSVSVAPGQTARITCGGSNIGSESVHWYQQKPGQAPVLVVYSSSDRPSGIPERFSGSNSGNTATLTISRVEAGDEADYYCQVWAGSSDHVVFGGGTKLTVLG ?
60
